The following compounds are shown together with reported Kd values.
Target: Stromelysin-1 (Homo sapiens, UniProt P08254)
Sequence (P08254 whole entry): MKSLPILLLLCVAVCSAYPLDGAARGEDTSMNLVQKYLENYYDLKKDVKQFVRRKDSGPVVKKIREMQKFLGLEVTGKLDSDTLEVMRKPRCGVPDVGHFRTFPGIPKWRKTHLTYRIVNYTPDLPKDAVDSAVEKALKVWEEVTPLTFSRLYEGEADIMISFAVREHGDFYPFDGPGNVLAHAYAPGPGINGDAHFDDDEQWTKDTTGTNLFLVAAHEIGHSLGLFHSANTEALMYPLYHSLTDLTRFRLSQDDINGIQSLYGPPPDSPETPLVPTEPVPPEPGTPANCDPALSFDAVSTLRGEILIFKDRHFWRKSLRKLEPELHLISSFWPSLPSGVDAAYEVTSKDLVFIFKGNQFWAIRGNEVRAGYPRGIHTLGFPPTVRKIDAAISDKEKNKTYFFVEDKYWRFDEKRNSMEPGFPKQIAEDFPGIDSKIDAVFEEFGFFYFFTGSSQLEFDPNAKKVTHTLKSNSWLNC
Assay: Binding to stromelysin (MMP-3) in the presence of 1-Napthohydroxamate
Set-up: species or system Rattus norvegicus

INPUT SMILES: N#Cc1ccc(-c2ccc(O)cc2)cc1
READOUT UNITS: µM
VALUE MODIFIER: <
Kd: 50
--
INPUT SMILES: Oc1ccc(-c2ccc(O)cc2)cc1
READOUT UNITS: µM
VALUE MODIFIER: =
Kd: 150
--
INPUT SMILES: c1ccc(-c2ccncc2)cc1
READOUT UNITS: µM
VALUE MODIFIER: =
Kd: 900
